System: Swiss mice, Sarcoma 180 sc, mean tumor weight T/C
Assay: NCI In Vivo Anticancer Drug Screen. Data for tumor model Sarcoma 180 (subcutaneous) in Swiss mice
Details: endpoint: mean tumor weight; dose: 225.0 mg/kg/injection; schedule: Q01DX007 (ip); vehicle: saline; higher = larger tumour
Square brackets hold non-standard residues; d marks the D form. Peptide text beside a SMILES is read from it. Ac5c = NC1(C(=O)O)CCCC1
result.type: T/C

{"compound": "CCCCOC(=O)C1(N)CCCC1", "result.type": "T/C", "readout.value": "33 % of control"}
{"compound": "CCCOC(=O)C1(N)CCCC1", "result.type": "T/C", "readout.value": "28 % of control"}
{"compound": "Cc1ccc(NC(C(=O)c2ccccc2)c2ccccc2)cc1 (centres undefined)", "result.type": "T/C", "readout.value": "20 % of control"}
{"compound": "NCC(=O)NC1(C(=O)O)CCCC1 (H-Gly-[Ac5c]-OH)", "result.type": "T/C", "readout.value": "47 % of control"}

###

Test system: Swiss mice, Sarcoma 180 sc, mean tumor weight T/C
Assay: NCI In Vivo Anticancer Drug Screen. Data for tumor model Sarcoma 180 (subcutaneous) in Swiss mice
Conditions: endpoint: mean tumor weight; dose: 100.0 mg/kg/injection; schedule: Q01DX007 (ip); vehicle: other; higher = larger tumour

{"molecule": "CCN(CC)P(=S)(N1CC1)N1CC1", "T/C": "1 % of control"}
{"molecule": "CC(C)=CCC1=C(O)c2ccccc2C(=O)C1=O", "T/C": "90 % of control"}
{"molecule": "CCOC(=O)C1=C(C)NC(C)=C(C(=O)OCC)C1C", "T/C": "69 % of control"}
{"molecule": "COc1cc2c(c(OC3OC(CO)C(O)C(O)C3O)c1)C(=O)CC(c1ccc(O)cc1)O2 (stereo not given)", "T/C": "90 % of control"}
{"molecule": "COC(=O)C1=COC(C)C2CN3CCc4c([nH]c5cc(OC)ccc45)C3CC12 (stereo not given)", "T/C": "89 % of control"}

###

Tested on: Swiss mice, Sarcoma 180 sc, mean tumor weight T/C
Test: NCI In Vivo Anticancer Drug Screen. Data for tumor model Sarcoma 180 (subcutaneous) in Swiss mice
Conditions: endpoint: mean tumor weight; dose: 300.0 mg/kg/injection; schedule: Q01DX007 (ip); vehicle: carboxymethylcellulose (CMC); higher = larger tumour

{"compound": "COc1cccc(/C=N\\NC(=O)C(C)SC(C)C(=O)N/N=C/c2cccc(OC)c2)c1 (stereo not given)", "T/C": "64 % of control"}
{"compound": "Nc1ncnc2c1ncn2C1OC(CO)CC1O (stereo not given)", "T/C": "53 % of control"}
{"compound": "CCCCCCCCCCCCO[P+](=O)OCCCCCCCCCCCC", "T/C": "32 % of control"}
{"compound": "OCC1OC(n2cnc3c(=S)nc[nH]c32)C(O)C1O (stereo not given)", "T/C": "21 % of control"}
{"compound": "[Cl][Pt+2]([Cl])([Cl])[Cl].[Na+].[S-]c1ncnc2nc[nH]c12.[S-]c1ncnc2nc[nH]c12", "T/C": "1 % of control"}

###

Test system: Swiss mice, Sarcoma 180 sc, mean tumor weight T/C
Experiment: NCI In Vivo Anticancer Drug Screen. Data for tumor model Sarcoma 180 (subcutaneous) in Swiss mice
Details: endpoint: mean tumor weight; dose: 5.0 mg/kg/injection; schedule: Q#A X014 (ip); vehicle: methylcellulose (MC); higher = larger tumour

{"molecule": "CCC(c1ccc(O)cc1)C(CC)c1ccc(OC)cc1 (stereo not given)", "T/C": "40 % of control"}
{"molecule": "O=CNC(Cc1cccc(N(CCCl)CCCl)c1)C(=O)O (stereo not given)", "T/C": "52 % of control"}
{"molecule": "O=C(O)c1[nH]c(=O)[nH]c(=O)c1F", "T/C": "49 % of control"}
{"molecule": "COC1C(OC(=O)/C=C/C=C/C=C/C=C/C(=O)O)CCC2(CO2)C1C1(C)OC1CC=C(C)C (stereo not given)", "T/C": "76 % of control"}
{"molecule": "Cn1cnc([N+](=O)[O-])c1Sc1nc(N)nc2nc[nH]c12", "T/C": "27 % of control"}

###

System: Swiss mice, Sarcoma 180 sc, mean tumor weight T/C
Experiment: NCI In Vivo Anticancer Drug Screen. Data for tumor model Sarcoma 180 (subcutaneous) in Swiss mice
Settings: endpoint: mean tumor weight; dose: 8.0 mg/kg/injection; schedule: Q01DX007 (ip); vehicle: saline; higher = larger tumour

{"compound": "O=C(Nc1ccc(NC2=NCCN2)cc1)c1ccc(C(=O)Nc2ccc(NC3=NCCN3)cc2)cc1", "T/C": "97 % of control"}
{"compound": "CC(=O)C1(/C(C)=C/C2C(C=O)=CC(C)(C)C2O)CC1 (centres undefined)", "T/C": "75 % of control"}
{"compound": "COc1ccc2c3c([nH]c2c1)[C@H]1C[C@H]2[C@H](C[C@@H](O)[C@H](OC)[C@H]2CO)CN1CC3", "T/C": "102 % of control"}
{"compound": "COC(=O)C1C2CC3c4[nH]c5cc(OC)ccc5c4CCN3CC2CC(OC(=O)c2cc(OC)c(OC)c(OC)c2)C1OC (centres undefined)", "T/C": "115 % of control"}

###

Tested on: Swiss mice, Sarcoma 180 sc, mean tumor weight T/C
Experiment: NCI In Vivo Anticancer Drug Screen. Data for tumor model Sarcoma 180 (subcutaneous) in Swiss mice
Conditions: endpoint: mean tumor weight; dose: 16.0 mg/kg/injection; schedule: Q01DX007 (ip); vehicle: saline; higher = larger tumour
result.type: T/C

{"compound": "O=C(Nc1ccc(NC2=NCCN2)cc1)c1ccc(C(=O)Nc2ccc(NC3=NCCN3)cc2)cc1", "readout.value": "43 % of control"}
{"compound": "COc1ccc2c3c([nH]c2c1)[C@H]1C[C@H]2[C@H](C[C@@H](O)[C@H](OC)[C@H]2CO)CN1CC3", "readout.value": "77 % of control"}
{"compound": "CC1=C(CO)C(=O)O[C@@H]([C@@H](C)[C@H]2CC[C@H]3[C@@H]4C[C@H]5O[C@]56[C@@H](O)C=CC(=O)[C@]6(C)[C@H]4CC[C@]23C)C1", "readout.value": "77 % of control"}
{"compound": "COC(=O)C1C2CC3c4[nH]c5cc(OC)ccc5c4CCN3CC2CC(OC(=O)c2cc(OC)c(OC)c(OC)c2)C1OC (stereo not given)", "readout.value": "92 % of control"}
{"compound": "O=C1NC(=O)C2(CCCc3ccc(N(CCCl)CCCl)cc32)N1 (stereo not given)", "readout.value": "67 % of control"}

###

# T/C per entry
System: Swiss mice, Sarcoma 180 sc, mean tumor weight T/C
Assay: NCI In Vivo Anticancer Drug Screen. Data for tumor model Sarcoma 180 (subcutaneous) in Swiss mice
Details: endpoint: mean tumor weight; dose: 750.0 mg/kg/injection; schedule: Q01DX007 (ip); vehicle: other; higher = larger tumour
result.type: T/C

{"molecular.string": "O=C1c2cc(Cl)ccc2-c2c(Cl)cc(Cl)cc21", "readout.value": "27 % of control"}
{"molecular.string": "Clc1ccc2c(c1)Cc1cc(N=Cc3ccccc3Cl)ccc1-2", "readout.value": "20 % of control"}
{"molecular.string": "Clc1ccccc1/C=C/C=C1c2ccccc2-c2ccccc21", "readout.value": "49 % of control"}

###

System: Swiss mice, Sarcoma 180 sc, mean tumor weight T/C
Assay: NCI In Vivo Anticancer Drug Screen. Data for tumor model Sarcoma 180 (subcutaneous) in Swiss mice
Details: endpoint: mean tumor weight; dose: 9.0 mg/kg/injection; schedule: Q01DX007 (ip); vehicle: carboxymethylcellulose (CMC); higher = larger tumour

{"compound": "O=[As]O", "T/C": "83 % of control"}
{"compound": "C1OC1C1CO1 (stereo not given)", "T/C": "97 % of control"}
{"compound": "S=P(N1CCCCCC1)(N1CC1)N1CC1", "T/C": "60 % of control"}
{"compound": "CC(C)C(=O)OCC1OC(n2cnc3c(=S)nc(N)[nH]c32)C(OC(=O)C(C)C)C1OC(=O)C(C)C (stereo not given)", "T/C": "42 % of control"}
{"compound": "NCCCC(NC(=O)CCCCCCCCN=C(N)N)C(O)CCCCCCCCN=C(N)N (stereo not given)", "T/C": "123 % of control"}

###

System: Swiss mice, Sarcoma 180 sc, mean tumor weight T/C
Experiment: NCI In Vivo Anticancer Drug Screen. Data for tumor model Sarcoma 180 (subcutaneous) in Swiss mice
Conditions: endpoint: mean tumor weight; dose: 0.25 mg/kg/injection; schedule: Q#A X014 (ip); vehicle: carboxymethylcellulose (CMC); higher = larger tumour
# T/C per entry
result.type: T/C

{"compound": "CO[C@@]12[C@H](COC(N)=O)C3=C(C(=O)C(C)=C(N)C3=O)N1C[C@@H]1N[C@@H]12", "result.type": "T/C", "readout.value": "73 % of control"}
{"compound": "Nc1nc(=S)c2[nH]cnc2[nH]1", "result.type": "T/C", "readout.value": "89 % of control"}
{"compound": "N=[N+]=CC(=O)OCC(N)C(=O)O (stereo unspecified)", "result.type": "T/C", "readout.value": "61 % of control"}
{"compound": "C[C@]12CC[C@H](OC3OC(CO)C(O)C(O)C3O)C[C@H]1CC[C@@H]1[C@@H]2CC[C@]2(C)[C@@H](C3=CCOC3=O)CC[C@]12O (stereo partly specified)", "result.type": "T/C", "readout.value": "57 % of control"}
{"compound": "O=c1[nH]c(=O)c2n[nH]nc2[nH]1", "result.type": "T/C", "readout.value": "122 % of control"}
{"compound": "CN(Cc1cnc2nc(N)nc(N)c2n1)c1ccc(C(=O)N[C@@H](CCC(=O)O)C(=O)O)cc1", "result.type": "T/C", "readout.value": "121 % of control"}
